meta.source: patent US5807875A

target: NPY-Y1 receptor (Homo sapiens, UniProt P25929); construct: SK-N-MC cells (expressing the human Y1 -receptor); endogenous in cells; assay: Studies of binding with SK-N-MC cells (displacement of [^125 I]-Bolton-Hunter-NPY); details: SK-N-MC cells expressing the human Y1-receptor, 3 hours at ambient temperature
Sequence (P25929 whole entry): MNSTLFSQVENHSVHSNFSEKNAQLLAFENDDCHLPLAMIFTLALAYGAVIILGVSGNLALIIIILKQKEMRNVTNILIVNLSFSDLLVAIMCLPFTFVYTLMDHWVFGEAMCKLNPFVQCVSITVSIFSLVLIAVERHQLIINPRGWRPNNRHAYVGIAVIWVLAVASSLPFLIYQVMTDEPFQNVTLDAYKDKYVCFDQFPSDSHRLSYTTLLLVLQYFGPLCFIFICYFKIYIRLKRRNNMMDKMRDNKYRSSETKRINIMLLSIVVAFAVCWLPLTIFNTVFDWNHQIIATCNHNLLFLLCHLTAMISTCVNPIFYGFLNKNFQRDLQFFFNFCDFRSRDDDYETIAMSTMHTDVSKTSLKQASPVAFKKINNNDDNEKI
observable: IC50 (nM)

The cases that follow already have their IC50 on record.
INSERT INTO measurements (compound, observable, experimental_result) VALUES
  ('N=C(N)NCCC[C@@H](NC(=O)C(c1ccc(Br)cc1)c1ccc(Br)cc1)C(=O)NCc1ccc(O)cc1', 'IC50', 1.8),
  ('COc1ccc(CNC(=O)C(CCCNC(=N)N)NC(=O)C(c2ccccc2)c2ccccc2)cc1 (centres unmarked)', 'IC50', 32),
  ('N=C(N)c1cccc(CC(NC(=O)C(c2ccccc2)c2ccccc2)C(=O)NCc2ccc(O)cc2)c1 (centres unmarked)', 'IC50', 11.3);

1 = N=C(N)CCCCC(NC(=O)C(c1ccccc1)c1ccccc1)C(=O)NCc1ccc(O)cc1 (centres unmarked)
2 = CC1(C)NC(=O)N(Cc2ccc(CNC(=O)[C@@H](CCCNC(=N)N)NC(=O)C(c3ccccc3)c3ccccc3)cc2)C1=O
3 = N=C(N)NCCC[C@@H](NC(=O)C(c1ccccc1)c1ccccc1)C(=O)NCc1ccc(CO)cc1
4 = N=C(N)NCCC[C@@H](NC(=O)C(c1ccccc1)c1ccccc1)C(=O)NCc1ccc(CCO)cc1
Please rank these compounds by IC50 in descending order. Arrange the labels as the request states and list them.
1, 2, 3, 4
